Documented IC50 across a set of compounds
# EXPERIMENTAL_SYSTEM: TBK1 (Homo sapiens)
# Sequence (Q9UHD2 1-729): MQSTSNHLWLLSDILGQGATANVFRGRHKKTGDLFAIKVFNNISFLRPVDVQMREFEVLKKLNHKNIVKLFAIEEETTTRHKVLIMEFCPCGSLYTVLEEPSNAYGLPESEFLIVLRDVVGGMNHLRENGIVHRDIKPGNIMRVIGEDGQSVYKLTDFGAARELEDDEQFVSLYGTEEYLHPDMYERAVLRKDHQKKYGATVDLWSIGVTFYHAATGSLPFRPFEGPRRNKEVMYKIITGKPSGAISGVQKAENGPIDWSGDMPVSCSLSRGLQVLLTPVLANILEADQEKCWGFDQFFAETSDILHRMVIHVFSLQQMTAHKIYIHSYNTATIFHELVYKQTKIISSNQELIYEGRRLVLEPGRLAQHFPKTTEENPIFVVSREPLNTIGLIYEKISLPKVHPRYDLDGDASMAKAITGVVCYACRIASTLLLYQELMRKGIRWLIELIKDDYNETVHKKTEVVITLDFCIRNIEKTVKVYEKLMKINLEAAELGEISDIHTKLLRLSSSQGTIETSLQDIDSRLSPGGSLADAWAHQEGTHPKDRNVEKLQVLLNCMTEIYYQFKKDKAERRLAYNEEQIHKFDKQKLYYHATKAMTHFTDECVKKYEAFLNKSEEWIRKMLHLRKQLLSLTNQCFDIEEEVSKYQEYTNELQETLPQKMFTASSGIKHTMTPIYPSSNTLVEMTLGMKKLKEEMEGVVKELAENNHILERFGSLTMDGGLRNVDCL
# PROTOCOL_DESCRIPTION: TBK biochemical assay
# CONDITION_DETAILS: 10 point 1:4 dose response, 30 uM top concentration, 90 min at 25° C., LabChip EZ Reader II; read-out: TBK1_IC50

COMPOUND	EXPERIMENTAL_SYSTEM	IC50
COc1nc(Nc2nccc(-c3ccc(OC4CCNCC4C)c(C#N)c3)n2)ccc1N1CCN(C2COC2)CC1 (stereo not drawn)	TBK1 (Homo sapiens)	< 0.1 µM
COc1nc(Nc2nccc(-c3ccc(OC4CCOCC4)c(C#N)c3)n2)ccc1C(=O)N1C2COCC1CC(O)C2 (stereo not drawn)	TBK1 (Homo sapiens)	< 0.1 µM
COc1nc(Nc2ncc(C)c(-c3ccc(OC4CCN(C(=O)[C@H](C)O)CC4(F)F)c(C#N)c3)n2)ccc1N1CCN(C2COC2)CC1 (stereo partly drawn)	TBK1 (Homo sapiens)	< 0.1 µM
N#Cc1cc(-c2ccnc(Nc3ccc(N4CCN(C5COC5)CC4)cc3)n2)ccc1OC1CCOC1 (stereo not drawn)	TBK1 (Homo sapiens)	< 0.1 µM
C[C@H](O)C(=O)N1CCC(Oc2ccc(-c3ccnc(Nc4ccc(N5CCN(C6COC6)CC5)cc4)n3)cc2C#N)C(F)(F)C1 (stereo partly drawn)	TBK1 (Homo sapiens)	< 0.1 µM
COc1nc(Nc2nccc(-c3ccc(O[C@@H]4CCN(C(=O)CO)CC4(F)F)c(C#N)c3)n2)ccc1N1CCN(C)CC1	TBK1 (Homo sapiens)	< 0.1 µM

Recorded IC50 for COc1nc(Nc2nccc(-c3ccc(OC4CCOCC4)c(C#N)c3)n2)ccc1C(=O)N1CC2CCC1CN2C (stereo not drawn) , please? < 0.1 µM

Repeat for the following compound: `COc1nc(Nc2nccc(-c3ccc(OC4CCOCC4)c(C#N)c3)n2)ccc1C(=O)NCCO` < 0.1 µM

Repeat for the following compound: `COc1nc(Nc2nccc(-c3ccc(OC4CCOCC4)c(C#N)c3)n2)ccc1C(=O)N[C@H]1[C@@H]2C[C@H]1CN(C)C2` < 0.1 µM

Repeat for the following compound: `COc1nc(Nc2nccc(-c3ccc(OC4CN(C)C4)c(C#N)c3)n2)ccc1N1CCN(C)CC1` 0.1 to 1 µM

Repeat for the following compound: COc1nc(Nc2nccc(-c3ccc(OC4CCN(C(=O)[C@@H](O)CO)CC4(F)F)c(C#N)c3)n2)ccc1N1CCN(C2COC2)CC1 (stereo partly drawn) < 0.1 µM

Repeat for the following compound: COc1cc(Nc2nccc(-c3ccc(OC4CCN(C(=O)[C@H](C)O)CC4(F)F)c(C#N)c3)n2)ncc1N1CCN(C2COC2)CC1 (stereo partly drawn) < 0.1 µM

Repeat for the following compound: `COc1nc(Nc2nccc(-c3ccc(OCC4CN(C(=O)[C@H](C)O)C4)c(C#N)c3)n2)ccc1N1CCN(C2COC2)CC1` < 0.1 µM
